SYSTEM_TESTED: FZD6 (Homo sapiens, UniProt O60353)
Construct: purchased Promega (in-house HiBiT-GPCR construct library, NanoBRET)
Sequence (O60353 19-706): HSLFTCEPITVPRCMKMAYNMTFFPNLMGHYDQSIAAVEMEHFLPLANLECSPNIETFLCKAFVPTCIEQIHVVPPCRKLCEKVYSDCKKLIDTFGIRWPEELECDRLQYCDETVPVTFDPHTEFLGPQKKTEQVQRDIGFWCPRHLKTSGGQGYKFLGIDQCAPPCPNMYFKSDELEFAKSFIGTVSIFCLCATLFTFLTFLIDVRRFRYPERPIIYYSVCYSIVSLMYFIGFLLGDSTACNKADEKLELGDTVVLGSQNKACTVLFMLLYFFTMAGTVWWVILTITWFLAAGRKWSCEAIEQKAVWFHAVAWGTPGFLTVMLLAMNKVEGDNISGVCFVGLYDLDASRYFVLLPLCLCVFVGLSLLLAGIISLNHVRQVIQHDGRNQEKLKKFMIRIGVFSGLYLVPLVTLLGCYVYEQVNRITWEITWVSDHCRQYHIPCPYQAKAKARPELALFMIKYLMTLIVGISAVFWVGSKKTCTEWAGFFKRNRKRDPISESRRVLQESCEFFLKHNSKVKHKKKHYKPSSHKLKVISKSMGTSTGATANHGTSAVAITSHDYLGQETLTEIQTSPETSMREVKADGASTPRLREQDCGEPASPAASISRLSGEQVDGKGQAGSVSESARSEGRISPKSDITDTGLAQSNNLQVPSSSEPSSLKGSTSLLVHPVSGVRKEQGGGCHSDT
ASSAY_DETAILS: NanoBRET screen HiBiT-FZD6 in HEK293
Format: binding
MEASUREMENT_CONTEXT: FZD6; tracer 0.1μM
READOUT: NanoBRET Fold Response

[
  {
    "COMPOUND": "O=C(CCc1ccc2n1[B-](F)(F)[N+]1=C(c3ccc[nH]3)C=CC1=C2)NCc1ccc(C(=O)NCCOCCC(=O)N[C@@H]2CC[C@@]3(O)[C@H]4Cc5ccc(O)c6c5[C@@]3(CCN4CC3CC3)[C@H]2O6)cc1 [Naltrexone-3-NB590]",
    "READOUT": "NanoBRET Fold Response",
    "VALUE_REPORTED": 0.94
  },
  {
    "COMPOUND": "CC(C)N(CC[C@H](c1ccccc1)c1cc(CCNC(=O)c2ccc(CNC(=O)CCc3ccc4n3[B-](F)(F)[N+]3=C(c5ccc[nH]5)C=CC3=C4)cc2)ccc1O)C(C)C",
    "READOUT": "NanoBRET Fold Response",
    "VALUE_REPORTED": 0.97
  },
  {
    "COMPOUND": "CCCn1c(=O)c2[nH]c(-c3ccc(OCC(=O)NCCNC(=O)CCOCCNC(=O)c4ccc(CNC(=O)CCc5ccc6n5[B-](F)(F)[N+]5=C(c7ccc[nH]7)C=CC5=C6)cc4)cc3)nc2n(CCC)c1=O",
    "READOUT": "NanoBRET Fold Response",
    "VALUE_REPORTED": 0.95
  },
  {
    "COMPOUND": "CC(C)N(CC[C@H](c1ccccc1)c1cc(CCNC(=O)CCOCCOCCOCCOCCNC(=O)CCc2ccc3n2[B-](F)(F)[N+]2=C(c4ccc[nH]4)C=CC2=C3)ccc1O)C(C)C",
    "READOUT": "NanoBRET Fold Response",
    "VALUE_REPORTED": 0.83
  }
]

Documented NanoBRET Fold Response of "N#CN=C(NCCCOc1cccc(CN2CCCCC2)c1)NCCNC(=O)CCOCCOCCOCCOCCNC(=O)CCc1ccc2n1[B-](F)(F)[N+]1=C(c3ccc[nH]3)C=CC1=C2" : 1.03
